molecular target: T1, HuCD28-HuIgG1 (fusion protein of the extracellular part of human CD28 and human Fc gamma 1, R&D Systems Cat … (human, UniProt P10747 19-152; P01857 100-330 = IgG part); assay: competition ELISA, CD28-hFc in solution; blocked ligand coated B7-1-muFc
T1 construct: extracellular domain;domain: Fc; bought; also called CD28-Ig; hCD28-Fc
Each item that follows carries a reported IC50 (read off the curve).

Below, each entry is followed by its recorded IC50 (read off the curve) result.
65C2 (VHH, Nanobody against CD28) VHH: EVQLVESGGGLVQAGGSLRLSCAASGLTFSNYVMGWFRQAPGKEREFVGTISWDGSDTYYTHSVKGRFTISRDNAKNVVNLQMNSLKPEDTAVYYCAADYRPGGLLSLGKNEYDYWGQGTQVTVSS = ~90 nM
70F9 (VHH, Nanobody against CD28) VHH: EVQLVESGGGLVQAGGSLRLSCAASGRTFSSYVMGWFRQAPGKEREFVAAHSWYADYADSVKGRFSISRDNDKNTVYLQMNSLKPEDTAVYYCAASRSQGRRYANSYESWGQGTQVTVSS = ~100 nM

Moving on to another binder below.
[Q] What value of measured IC50 (read off the curve) is listed for 65B2 (VHH, Nanobody against CD28) VHH: EVQLVESGGGLVQAGGSLRLSCATSGRTFSSDVMGWFRQAPGKEREFVAAINRSGHSTSYTGSVKGRFAISRDNTKNTVYLQMNSLKPEDTAVYYCALRLWSDYLAQKSGEYNYWGQGTQVTVSS ?
[A] ~200 nM
